target under test: 28 CDKs family protein kinases (Homo sapiens, UniProt Q9BWU1)
Sequence (Q9BWU1 whole entry): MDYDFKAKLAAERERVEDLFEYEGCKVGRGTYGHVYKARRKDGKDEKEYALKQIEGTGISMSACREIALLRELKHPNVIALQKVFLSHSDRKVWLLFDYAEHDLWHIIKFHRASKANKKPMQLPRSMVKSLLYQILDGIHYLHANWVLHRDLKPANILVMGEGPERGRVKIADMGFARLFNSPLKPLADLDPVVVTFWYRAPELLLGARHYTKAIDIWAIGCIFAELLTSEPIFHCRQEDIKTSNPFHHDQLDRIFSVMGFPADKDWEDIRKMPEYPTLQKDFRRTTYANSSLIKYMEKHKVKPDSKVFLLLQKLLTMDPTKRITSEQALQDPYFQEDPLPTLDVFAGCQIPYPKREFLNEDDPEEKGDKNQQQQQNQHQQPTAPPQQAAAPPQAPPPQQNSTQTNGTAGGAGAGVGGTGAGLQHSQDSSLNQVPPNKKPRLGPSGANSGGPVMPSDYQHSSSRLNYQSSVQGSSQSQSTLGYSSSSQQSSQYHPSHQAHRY
Sequence (P24863 whole entry partner): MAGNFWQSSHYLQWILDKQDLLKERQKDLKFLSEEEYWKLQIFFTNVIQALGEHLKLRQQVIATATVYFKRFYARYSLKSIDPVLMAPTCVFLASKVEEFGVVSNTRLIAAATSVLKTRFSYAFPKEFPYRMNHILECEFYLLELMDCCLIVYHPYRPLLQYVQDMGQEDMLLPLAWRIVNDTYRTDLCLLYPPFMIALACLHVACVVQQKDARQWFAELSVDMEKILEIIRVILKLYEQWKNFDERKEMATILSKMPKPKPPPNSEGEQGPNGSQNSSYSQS
protocol description: In vitro IC50 profile for CDKs family kinase (33PanQinase Activity Assay, ProQinase)
reported conditions: CDK19/CycC; read-out: CDK7 selectivity profile in CDKs family, IC50

{"columns": ["line notation", "IC50"],
 "data": [
  ["CC(C)c1cnn2c(NCc3ccccc3-c3nccc4cc(NC(=O)/C=C/CN(C)C)ccc34)nc(N3CCC(N)CC3)nc12", "> 10 µM"]
]}

====

Reported IC50 values follow for various compounds
target under test: CDK1/Cyclin B (Homo sapiens, UniProt P06493)
Construct: purchased Invitrogen PR4768C
Sequence (P06493 whole entry): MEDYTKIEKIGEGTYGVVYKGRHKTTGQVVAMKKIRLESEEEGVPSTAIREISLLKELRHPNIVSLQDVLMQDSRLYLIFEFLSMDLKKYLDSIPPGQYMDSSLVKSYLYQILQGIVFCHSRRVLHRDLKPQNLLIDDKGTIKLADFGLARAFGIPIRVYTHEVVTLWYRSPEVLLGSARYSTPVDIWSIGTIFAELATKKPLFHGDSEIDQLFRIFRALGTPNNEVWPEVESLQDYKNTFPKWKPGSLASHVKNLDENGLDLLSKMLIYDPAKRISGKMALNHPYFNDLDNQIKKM
Sequence (P14635 whole entry partner): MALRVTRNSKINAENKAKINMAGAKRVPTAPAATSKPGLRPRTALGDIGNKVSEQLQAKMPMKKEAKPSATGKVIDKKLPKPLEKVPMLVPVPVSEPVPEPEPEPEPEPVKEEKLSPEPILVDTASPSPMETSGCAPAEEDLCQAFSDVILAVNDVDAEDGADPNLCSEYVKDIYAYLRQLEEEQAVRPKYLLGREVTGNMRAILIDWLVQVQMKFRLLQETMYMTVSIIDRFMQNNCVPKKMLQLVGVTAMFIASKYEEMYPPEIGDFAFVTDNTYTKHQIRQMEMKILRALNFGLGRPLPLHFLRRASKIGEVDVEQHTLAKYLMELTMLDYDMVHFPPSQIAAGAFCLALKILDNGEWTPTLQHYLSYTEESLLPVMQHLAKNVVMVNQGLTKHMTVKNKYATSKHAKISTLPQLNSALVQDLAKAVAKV
protocol description: Enzymatic assay for CDK1 (LANCE Ultra kinase assay, FRET based)
Assay type: biochemical
reported conditions: ATP at Km; read-out: CDK1 enzymatic activity IC50

{"columns": ["compound", "target under test", "IC50"],
 "data": [
  ["CC(C)c1cnn2c(NCc3ccccc3-c3cc4c(NC(=O)/C=C/CN(C)C)cccc4[nH]3)nc(N3CCC(N)CC3)nc12", "CDK1/Cyclin B (Homo sapiens, UniProt P06493)", "100 to 1000 nM"],
  ["CO[C@H]1CC[C@H](Nc2nc(NCc3ccccc3-c3nccc4cc(NC(=O)/C=C/CN5CCCCC5)ccc34)n3ncc(C(C)C)c3n2)CC1", "CDK1/Cyclin B (Homo sapiens, UniProt P06493)", "> 1000 nM"],
  ["CC(C)c1cnn2c(NCc3ccccc3-c3cc4cccc(NC(=O)/C=C/CN(C)C)c4[nH]3)nc(N3CCC(N)CC3)nc12", "CDK1/Cyclin B (Homo sapiens, UniProt P06493)", "100 to 1000 nM"],
  ["CC(C)c1cnn2c(NCc3ccccc3-c3nccc4cc(NC(=O)/C=C/CN(C)C)ccc34)nc(NC3CCC(O)CC3)nc12 (stereo not drawn)", "CDK1/Cyclin B (Homo sapiens, UniProt P06493)", "> 1000 nM"],
  ["CC(C)c1cnn2c(NCc3ccccc3-c3cc4cc(NC(=O)/C=C/CN(C)C)ccc4[nH]3)nc(N3CCC(N)CC3)nc12", "CDK1/Cyclin B (Homo sapiens, UniProt P06493)", "100 to 1000 nM"],
  ["CC(C)c1cnn2c(NCc3ccccc3-c3nccc4cc(NC(=O)/C=C/CN(C)C)ccc34)nc(N3CC4COCC4C3)nc12 (stereo not drawn)", "CDK1/Cyclin B (Homo sapiens, UniProt P06493)", "> 1000 nM"]
]}

====

Reported IC50 values follow for various compounds
target under test: CDK5/p25 (Homo sapiens)
Sequence (Q00535 whole entry): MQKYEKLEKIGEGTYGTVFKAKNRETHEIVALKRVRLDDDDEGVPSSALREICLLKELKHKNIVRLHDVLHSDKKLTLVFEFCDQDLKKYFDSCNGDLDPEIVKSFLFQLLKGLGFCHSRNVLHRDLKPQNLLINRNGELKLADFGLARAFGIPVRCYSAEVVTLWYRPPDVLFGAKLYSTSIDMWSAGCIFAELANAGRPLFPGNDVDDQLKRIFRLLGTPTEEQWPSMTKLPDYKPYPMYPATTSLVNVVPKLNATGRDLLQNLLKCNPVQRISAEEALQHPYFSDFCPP
Sequence (Q15078 99-307 partner limits assumed): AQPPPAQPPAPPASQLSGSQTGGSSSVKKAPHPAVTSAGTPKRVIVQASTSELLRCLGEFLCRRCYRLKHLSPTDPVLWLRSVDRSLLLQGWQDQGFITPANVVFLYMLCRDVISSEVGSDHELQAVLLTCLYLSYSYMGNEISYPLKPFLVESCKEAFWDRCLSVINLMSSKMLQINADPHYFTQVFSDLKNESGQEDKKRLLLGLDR
protocol description: Enzymatic assay for CDK5 (LANCE Ultra kinase assay, FRET based)
reported conditions: ATP at Km

{"columns": ["line notation", "IC50"],
 "data": [
  ["COC1CCN(c2nc(NCc3ccccc3-c3nccc4cc(NC(=O)/C=C/CN(C)C)ccc34)n3ncc(C(C)C)c3n2)CC1", "> 1 µM"],
  ["CC(C)c1cnn2c(NCc3cccc(NC(=O)c4cccc(NC(=O)/C=C/CN(C)C)c4)c3)nc(N3CCC(N)CC3)nc12", "0.1 to 1 µM"],
  ["CC(C)=CC(=O)Nc1ccc2c(-c3ccccc3CNc3nc(N4CCC(N)CC4)nc4c(C(C)C)cnn34)nccc2c1", "> 1 µM"],
  ["CC(C)c1cnn2c(NCc3ccccc3-c3nccc4cc(NC(=O)/C=C/CN(C)C)ccc34)nc(N3CCC(C#N)CC3)nc12", "> 1 µM"]
]}
